- assayed_target: GST-Dm-Relish (Drosophila melanogaster, UniProt Q94527 99-473)
- Sequence: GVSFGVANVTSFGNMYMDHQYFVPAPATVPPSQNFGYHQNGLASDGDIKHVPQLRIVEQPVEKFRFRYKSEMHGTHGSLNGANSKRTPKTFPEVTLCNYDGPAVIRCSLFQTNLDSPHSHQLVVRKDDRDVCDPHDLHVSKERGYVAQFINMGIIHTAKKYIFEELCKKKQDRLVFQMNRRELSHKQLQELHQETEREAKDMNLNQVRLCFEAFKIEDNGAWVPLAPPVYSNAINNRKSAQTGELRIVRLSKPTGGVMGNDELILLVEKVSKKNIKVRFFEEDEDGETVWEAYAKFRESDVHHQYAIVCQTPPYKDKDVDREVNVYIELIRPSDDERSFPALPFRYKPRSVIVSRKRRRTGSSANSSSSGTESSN
- protocol: protein-binding microarray (PBM); PBM: ~300 nM protein, 6 mM HEPES pH 7.8, 80 mM KCl, 0.5 mM EDTA, 0.5 mM EGTA, 6% glycerol, 35 ng/ul poly-dIdC, 1% milk, 1 h, room temperature; high values mean tight binding
- experimental_parameters: dsDNA, one strand shown
measured_metric: binding signal (z-score)
# number only, unit z-score dropped from output

{"columns": ["input_sequence", "unit_of_measurement", "numeric_value"],
 "data": [
  ["CCGATTAACATCAAATTCCCAAATGATGTTAATCGGGTCTTGATTCGCTTGACGCTGCTG", "z-score", 4.57],
  ["CCGATTAACATCAAATTCCCAACTGATGTTAATCGGGTCTTGATTCGCTTGACGCTGCTG", "z-score", 3.39],
  ["CCGATTAACATCAAATCCCCCCGTGATGTTAATCGGGTCTTGATTCGCTTGACGCTGCTG", "z-score", 8.05]
]}

q: Return the recorded binding signal value; entry: CCGATTAACATCACCCAATTCCCTGATGTTAATCGGGTCTTGATTCGCTTGACGCTGCTG
a: 1.62

q: Return the recorded binding signal value; entry: CCGATTAACATCAAAAATACCCTTGATGTTAATCGGGTCTTGATTCGCTTGACGCTGCTG
a: 7.04

---

- assayed_target: GST-Ap-NF-kB RHD (Exaiptasia pallida (Aiptasia), UniProt A0A913YAJ5 2-422)
- Sequence: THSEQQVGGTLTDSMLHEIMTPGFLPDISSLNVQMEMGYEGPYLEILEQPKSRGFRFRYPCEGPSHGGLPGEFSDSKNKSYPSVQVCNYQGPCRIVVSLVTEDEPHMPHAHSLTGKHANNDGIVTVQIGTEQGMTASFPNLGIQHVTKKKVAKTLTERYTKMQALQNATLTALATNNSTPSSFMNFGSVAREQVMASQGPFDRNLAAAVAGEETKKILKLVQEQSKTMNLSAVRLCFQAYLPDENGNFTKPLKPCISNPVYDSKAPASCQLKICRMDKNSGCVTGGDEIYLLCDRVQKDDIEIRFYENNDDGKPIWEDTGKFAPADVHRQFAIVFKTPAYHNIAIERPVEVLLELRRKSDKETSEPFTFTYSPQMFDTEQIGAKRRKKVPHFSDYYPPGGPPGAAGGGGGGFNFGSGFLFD
- protocol: protein-binding microarray (PBM); PBM: ~300 nM protein, 6 mM HEPES pH 7.8, 80 mM KCl, 0.5 mM EDTA, 0.5 mM EGTA, 6% glycerol, 35 ng/ul poly-dIdC, 1% milk, 1 h, room temperature; Ap Aiptasia and Nv Nematostella (sea anemones) / Co Capsaspora / Aq Amphimedon (sponge) / Dm Drosophila / Hu human; RHD is the Rel homology domain; high values mean tight binding
- experimental_parameters: dsDNA, one strand shown
Rule: binding signal below 6 z-score gives class 1, anything at or above gives class 0.

Solved cases below.
{"columns": ["input_sequence", "discrete_label"],
 "data": [
  ["CCGATTAACATCAGGGCATGCCCTGATGTTAATCGGGTCTTGATTCGCTTGACGCTGCTG", "class 1"],
  ["CCGATTAACATCAATTTCCCATATGATGTTAATCGGGTCTTGATTCGCTTGACGCTGCTG", "class 1"],
  ["CCGATTAACATCAGGAGTCCCCATGATGTTAATCGGGTCTTGATTCGCTTGACGCTGCTG", "class 0"],
  ["CCGATTAACATCACGTACTCCCCTGATGTTAATCGGGTCTTGATTCGCTTGACGCTGCTG", "class 1"],
  ["CCGATTAACATCAGGGGGGGACCTGATGTTAATCGGGTCTTGATTCGCTTGACGCTGCTG", "class 0"],
  ["CCGATTAACATCACAGTACCCCCTGATGTTAATCGGGTCTTGATTCGCTTGACGCTGCTG", "class 1"],
  ["CCGATTAACATCAGGGTAAACCCTGATGTTAATCGGGTCTTGATTCGCTTGACGCTGCTG", "class 1"],
  ["CCGATTAACATCAATTCCCCAGGTGATGTTAATCGGGTCTTGATTCGCTTGACGCTGCTG", "class 1"]
]}

q: Hello, I'm reviewing records and need to know if binding signal of CCGATTAACATCAATTCCCGTACTGATGTTAATCGGGTCTTGATTCGCTTGACGCTGCTG is below 6 z-score. Could you check?
a: class 1

q: Hello, I'm reviewing records and need to know if binding signal of CCGATTAACATCAAATTTCCCGTTGATGTTAATCGGGTCTTGATTCGCTTGACGCTGCTG is below 6 z-score. Could you check?
a: class 1

q: Hello, I'm reviewing records and need to know if binding signal of CCGATTAACATCACGGGAGTCCCTGATGTTAATCGGGTCTTGATTCGCTTGACGCTGCTG is below 6 z-score. Could you check?
a: class 1

q: Hello, I'm reviewing records and need to know if binding signal of CCGATTAACATCAGTTTCCCCCATGATGTTAATCGGGTCTTGATTCGCTTGACGCTGCTG is below 6 z-score. Could you check?
a: class 0
